Assay: NIH-3T3 fibroblast cytotoxicity, dose response, cytotoxicity control, cell-based, fluorescence, Alamar Blue, secondary assay (AID 2327);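 further: NIH-3T3 mouse fibroblasts cultured with fluconazole at 8 µg/mL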
Type: functional
The source made the active and inactive calls. No stated cut-off is given here; in the data, actives have a measured EC50 and inactives only a lower limit.
Consider the following compounds; for each one, report its EC50.

Report EC50 for "O=C(Nc1nnc(-c2ccc(F)cc2)o1)c1cccc([N+](=O)[O-])c1" please.
> 150 µM (inactive)

Could you tell me which EC50 is on file for O=C1CN2C(=Nc3ccc(Cl)cc3C2c2ccccc2)CN1 (centres undefined) ?
> 160 µM (inactive)

What value of EC50 has been recorded for this entry: "Cc1c(Cl)ccc2c1NC(=O)[C@]21N[C@@H](Cc2ccccc2)[C@H]2C(=O)N(c3ccc(F)cc3)C(=O)[C@H]21"
> 150 µM (inactive)

Report EC50 for "Cc1ccc(-n2ncc(Br)c(Br)c2=O)cc1" please.
2.27 µM (inconclusive)
